For each entry below, report its Biodistribution: Thyroid value.
assay: Organ distribution in normal ICR mice after iv injection of radiolabeled tracer; assay type: in vivo; conditions: [125I]-labeled tracer, 30 min
Quick note: give the figure in % dose/g, leave out the unit.

Look at this molecule and give its reported Biodistribution: Thyroid. CNc1ccc(/C=C/c2cnc(OCCOCCOCCF)c(I)c2)cc1 [[^125I]13b]
24.09

What Biodistribution: Thyroid value was documented for this molecule, CNc1ccc(/C=C/c2cnc(OCCO)c(I)c2)cc1 [[^125I]16b] ?
17.23

For CN(C)c1ccc(/C=C/c2cnc(OCCO)c(I)c2)cc1 [[^125I]16a] , what is its reported Biodistribution: Thyroid?
11.21

Find the recorded Biodistribution: Thyroid belonging to CN(C)c1ccc(/C=C/c2cnc(OCCOCCOCCF)c(I)c2)cc1 [[^125I]13a] and report it.
16.23
